# assay.remarks: yeast display, Sf9 membrane polyspecificity reagent, FACS + sequencing; frameworks hold sequencing errors
measurement.name: polyreactivity (PSR sort gate)

Before answering, review these 5 worked examples.
QVQLVESGGGLVQAGGSLRLSCAASGFTFRRNAMRWYRQAPGKEWELVAAINFRDGSTYYADSLKGRFTISRDNAMIHVYLQMHSLKPEDSAVYYRAAVYYVRDRYDYWGQGTQETVSS	high polyreactivity
QVQLVESGGGLVQAGGSLRLSCAASGRIFDKYAMGWYRQAPGKERYLVAAIDWSGGSTYYADSVKGRFTISRDNAKNTVYLQMNRLKPEDNAVYYCAAYWYYEDGQSEARLYGYDYWGQGTQVTVSS	low polyreactivity
QVQLVESGGGLVQAGGSLRLSCAASGSTFAGNAMGWYRQAPGKERELVAAITSGTGTHYADSVKGRFTISRDNAKNSVYLQMNSLKPEDTAVYYCAAEVWTWAGIWGYEYWGQGTQVTVSS	low polyreactivity
QVQLVESGGGLVQAGGSLRLSCAASGFTFVGYAMGWYRQAPGKERELVAAISSSGVSTYYADSVKGRFTISRDNAKNTVYLQMNSLKPEDTAVYYCNRVSVYRSSHLLWGGYWGQGTQVTVSS	low polyreactivity
QVQLVDSGGGLVQAVGSLRLSCAASGGIFVPNAMGWYRQAHGKVRELVAAIYYSGGRTYYADSVKGSFTISRDNAKNTVYLQMNRLKPEDTAVYYCAAEYWFVFHHYNYFGQGTQVTVSS	high polyreactivity

Data request, read-out polyreactivity (PSR sort gate), for QVQLVESGGGLVQAGGSLRLSCAASGIIFQIYAKGWYRQAPGKERELVAAISGGGNTDYADSVKGRFTISRDNAKNTVYLQMNSLKPEDTAVYYCAADFVDWVWSRYGLFEHDYWGQGTQVTVSS
low polyreactivity

Now give it for QVQLVESGGGLVQAGGSLRLSCAASGGIFKKYAMGWYRQAPGKERELVAVITSGGRTNYADSVKGRFTISRDNAKNTVYLLMNSLKPEDTAVYYCAAVYVTGSYRYGYWGQGSQVTVSS too.
high polyreactivity

Now give it for QVQLVESGGGLDQAGGRLRLSCAASGSTFLLYAMGWYRQAPGKERELVAAIDTGDSTNYADSVKGRFTISRDNAKNTVYLQMNSLKREDTAVYYCNADSFPALNKRGYDYWGQGTQVTVSS too.
low polyreactivity

Now give it for QVQLVESGGGLVQAGGSLRLSCAASGFTFYRYTMGWYRQAPGKERELVAAISRGGRTYYADSVKGRFTISRDNAKNTVYLQMNSLKPEDTAVYYCNARYPSADDWGQGTQVTVSS too.
high polyreactivity

Now give it for QLQLVESGGGLVQAGGSLRLSCAASGLIFIYYAMGWYRQAPGKERELVASITNSGGSTYYADSVKGRFTISRDNAKNTVYLQMNSLKPEDTALYYCAADYKTIVQRYGYYYWGQGTQVTVSS too.
low polyreactivity

Now give it for QVQLVESGGGLVQAGGSLRLSCAASGSTFDYYAMGWYRQAPGKERELVAVISSSGGSTYYADSVKGRFTISRDNAKNTVYLQMNSLKPEDTAVYYCAALYRNYGSSYAYYYWGQGTQVTVSS too.
low polyreactivity

###

# assay.remarks: yeast display, Sf9 membrane polyspecificity reagent, FACS + sequencing; frameworks hold sequencing errors
measurement.name: polyreactivity (PSR sort gate)

QVQLVESGGGLVQAGGSLRLSCAASGSIFWLYAMGWYRQAPGKERELVAAIDSGDSTKYADSVKGRFTISRDNAKTTVYLQMNSLKPEDTAVYYCNASRRYHVRAPYDYWGQGTQVTLSS	low polyreactivity
QVQLVESGGGLVQAGGSLRLSCAASGFIFPTYAMGWYRQATGKERELVAAISYRGGITSYADSVKGRFTISRDNAKNTVYLQMNSLKPEDSAVYYCAARGAWGYEYWGQGTQVTVSS	low polyreactivity
QVQLVESGVGLVQAGGSLRLSCAASGITFIPYAMGWYRQAPGKERELVASISDGGGTNYADSVKGLFTISRDNAKNTVYLQKNSLNPEDTAVYYCATYASTYSYYGGDYWGQGTPVTVSS	low polyreactivity

From: the nanobody polyreactivity screen of Harvey et al. (2022)
